# studySystem: Matrigel growth factor reduced LDEV free (basement membrane extract rich in collagen IV and laminin)
# assaySummary: competition ELISA: synthetic peptide (10^-5-10^-10 M) against 10^9 pfu cognate phage clone on Matrigel-coated plate, anti-M13/ABTS
No end group written: not given here.
measuredParameter: pIC50
FYI, pIC50 means -log10 of a concentration in mol per litre.

Query: Consider the binder shown here: KIWKLPQGGGC-NH2 [synthetic peptide modeled after phage clone C-10 (KIWKLPQ with C-terminal GGGC linker, amidated)] What is its recorded pIC50?
Response: 6.04

Query: Consider the binder shown here: KIFVWPYGGGC-NH2 [synthetic peptide modeled after phage clone A-9 (KIFVWPY with C-terminal GGGC linker, amidated)] What is its recorded pIC50?
Response: 6.26

Query: Consider the binder shown here: KVWSLPQGGGC-NH2 [synthetic peptide modeled after phage clone A-8 (KVWSLPQ with C-terminal GGGC linker, amidated)] What is its recorded pIC50?
Response: 5.92

Query: Consider the binder shown here: KLWVLPKGGGC-NH2 [synthetic peptide modeled after phage clone C-11 (…-Am)] What is its recorded pIC50?
Response: 6.93
